Cited source: patent US10874743B2

# tested-on: IRAK4 (Homo sapiens, UniProt Q9NWZ3)
# Sequence (Q9NWZ3 1-460): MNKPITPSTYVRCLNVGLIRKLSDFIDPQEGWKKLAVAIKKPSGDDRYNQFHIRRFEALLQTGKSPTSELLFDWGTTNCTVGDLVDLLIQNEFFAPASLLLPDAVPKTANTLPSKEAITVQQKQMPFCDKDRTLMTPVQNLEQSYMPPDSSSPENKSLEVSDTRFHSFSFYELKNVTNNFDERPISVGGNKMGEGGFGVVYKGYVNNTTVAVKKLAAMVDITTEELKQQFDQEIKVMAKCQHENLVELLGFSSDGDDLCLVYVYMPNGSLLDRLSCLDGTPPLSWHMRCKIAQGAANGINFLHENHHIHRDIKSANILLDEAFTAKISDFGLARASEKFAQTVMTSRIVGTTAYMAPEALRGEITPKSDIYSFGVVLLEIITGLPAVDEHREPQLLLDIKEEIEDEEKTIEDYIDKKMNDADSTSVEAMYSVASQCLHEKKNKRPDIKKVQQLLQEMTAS
# method-notes: OCI-LY-10 MSD assay for IRAK4 DC50
# Type: cell-based
# Parameters: endogenous in cells; host or cells: OCI-LY10
# test-settings: OCI-LY10 cells, 4 hr incubation, concentration required to degrade 50% of protein
property: DC50

molecule | experimental-value
O=C1CCC(N2C(=O)c3cccc(CCCCCN4CCC(n5cc(NC(=O)c6coc(-c7ccnc(NCC8CC8)c7)n6)c(C(F)F)n5)CC4)c3C2=O)C(=O)N1 (centres unmarked) | > 1000 nM
O=C1CCC(N2C(=O)c3ccc(NC4CCN(CCOCCNC(=O)c5ccc(-n6cc(NC(=O)c7coc(-c8ccnc(NCC9CC9)c8)n7)c(C(F)F)n6)cc5)CC4)cc3C2=O)C(=O)N1 (centres unmarked) | 100 to 500 nM
Cn1c(=O)n(C2CCC(=O)NC2=O)c2ccc(CCCOCCC(=O)N3CCN(C4CCC(Nc5ncnn6ccc(C7CCOCC7)c56)CC4)CC3)cc21 (centres unmarked) | > 1000 nM
CN(CCCCOCCCCc1ccc2c(c1)n(C)c(=O)n2C1CCC(=O)NC1=O)C(=O)c1ccc(-n2cc(NC(=O)c3coc(-c4ccnc(NCC5CC5)c4)n3)c(C(F)F)n2)cc1 (centres unmarked) | 50 to 100 nM
Cn1c(=O)n(C2CCC(=O)NC2=O)c2ccc(CCCOCCCNCc3ccc(-n4cc(NC(=O)c5coc(-c6ccnc(NCC7CC7)c6)n5)c(C(F)F)n4)cc3)cc21 (centres unmarked) | < 50 nM
O=C1CCC(N2C[C@H](c3ccc(C#CCCOCCCNCc4ccc(-n5cc(NC(=O)c6coc(-c7ccnc(NCC8CC8)c7)n6)c(C(F)F)n5)cc4)cc3)OC2=O)C(=O)N1 (some centres unmarked) | 50 to 100 nM
Cn1c(=O)n(C2CCC(=O)NC2=O)c2ccc(CCCOCCOC3CCN(C(=O)c4ccc(-n5cc(NC(=O)c6coc(-c7ccnc(NCC8CC8)c7)n6)c(C(F)F)n5)cc4)CC3)cc21 (centres unmarked) | < 50 nM
Cn1cc(NC(=O)c2coc(-c3cccnc3NCCOCCOCCOCCNc3cccc4c3C(=O)N(C3CCC(=O)NC3=O)C4=O)n2)c(C(F)F)n1 (centres unmarked) | > 1000 nM
Cn1cc(NC(=O)c2coc(-c3ccnc(NCC(F)(F)F)c3)n2)c(C(=O)NCCOCCOCCOCCOCCOCCNc2cccc3c2C(=O)N(C2CCC(=O)NC2=O)C3=O)n1 (centres unmarked) [I-449] | > 1000 nM
O=C1CCC(n2c(=O)oc3c(CCCOCCOCCNCc4ccc(-n5cc(NC(=O)c6coc(-c7ccnc(NCC8CC8)c7)n6)c(C(F)F)n5)cc4)cccc32)C(=O)N1 (centres unmarked) | < 50 nM
O=C1CCC(N2C(=O)c3cccc(NCCOCCOCCNCc4ccc(-n5cc(NC(=O)c6coc(-c7ccnc(NCC(F)(F)F)c7)n6)c(CCCO)n5)cc4)c3C2=O)C(=O)N1 (centres unmarked) | > 1000 nM

###

# method-notes: Pharmacokinetics in CD-1 mice (plasma concentrations, PK parameters)
# Assay type: in vivo
# test-settings: CD-1, mouse, plasma, sc, 30 mg/kg, mouse (CD1) sc 30 mg/kg; 1 h; individual Mouse 7-9; read-out: Concentration
property: concentration at 1 h (ng/mL)

molecule | experimental-value
O=C1CCC(N2C(=O)c3cccc(NCCOCCOCCNCc4ccc(-n5cc(NC(=O)c6coc(-c7ccnc(NCC8CC8)c7)n6)c(C(F)F)n5)cc4)c3C2=O)C(=O)N1 (centres unmarked) | 107
NC(=O)c1nn(-c2ccc(C(=O)NCCCCCNCCNc3cccc4c3C(=O)N(C3CCC(=O)NC3=O)C4=O)cc2)cc1NC(=O)c1coc(-c2ccnc(NCC(F)(F)F)c2)n1 (centres unmarked) | 52.6

###

# Tmax annotations
# method-notes: Pharmacokinetics in CD-1 mice (plasma concentrations, PK parameters)
# Format: in vivo
# test-settings: CD-1, mouse, plasma, sc, 30 mg/kg, mouse (CD1) sc 30 mg/kg; Mean; read-out: Tmax

compound | Tmax / h
NC(=O)c1nn(-c2ccc(C(=O)NCCCCCNCCNc3cccc4c3C(=O)N(C3CCC(=O)NC3=O)C4=O)cc2)cc1NC(=O)c1coc(-c2ccnc(NCC(F)(F)F)c2)n1 (centres unmarked) [I-172] | 0.833
O=C1CCC(N2C(=O)c3cccc(NCCOCCOCCNCc4ccc(-n5cc(NC(=O)c6coc(-c7ccnc(NCC8CC8)c7)n6)c(C(F)F)n5)cc4)c3C2=O)C(=O)N1 (centres unmarked) [I-210] | 2.33

###

# method-notes: Pharmacokinetics in Sprague Dawley rats (plasma and brain concentrations, PK parameters)
# Assay type: in vivo
# test-settings: Sprague Dawley, rat, brain, iv, 3 mg/kg, Rat (Sprague Dawley) iv 3 mg/kg (IVB); brain; 1 h; Mean; read-out: brain Actual Conc.
property: concentration at 1 h

compound | experimental-value
O=C1CCC(N2C(=O)c3cccc(NCCOCCOCCNCc4ccc(-n5cc(NC(=O)c6coc(-c7ccnc(NCC8CC8)c7)n6)c(C(F)F)n5)cc4)c3C2=O)C(=O)N1 (stereo not shown) | 46.2 ng/g

###

# tested-on: IRAK4 (Homo sapiens)
# method-notes: OCI-LY-10 degradation assay (western blot, % IRAK4 degraded after 4 hours)
# Assay type: cell-based
# Parameters: endogenous in cells; host or cells: OCI-LY10
# test-settings: OCI-LY10 cells, 4 hours, 0.1 uM compound

compound | OCI-LY10 % IRAK4 Degradation (0.1 uM)
O=C1CCC(N2C(=O)c3cccc(NC4CCN(CCOCCOCCNC(=O)c5ccc(-n6cc(NC(=O)c7coc(-c8ccnc(NCC9CC9)c8)n7)c(C(F)F)n6)cc5)CC4)c3C2=O)C(=O)N1 (centres unmarked) | A (>50% degradation)
NC(=O)c1nn(-c2ccc(CNCC3CCCCN3CCOCCNc3cccc4c3C(=O)N(C3CCC(=O)NC3=O)C4=O)cc2)cc1NC(=O)c1coc(-c2ccnc(NCC(F)(F)F)c2)n1 (centres unmarked) | B (>20-50% degradation)
O=C1CCC(N2C(=O)c3cccc(NCCOCCN4CCO[C@H](CNC(=O)c5ccc(-n6cc(NC(=O)c7coc(-c8ccnc(NCC9CC9)c8)n7)c(C(F)F)n6)cc5)C4)c3C2=O)C(=O)N1 (some centres unmarked) | A (>50% degradation)
NC(=O)c1nn(-c2ccc(C(=O)NCCOCCOCCOCCCc3cccc4c3CN(C3CCC(=O)NC3=O)C4=O)cc2)cc1NC(=O)c1coc(-c2ccnc(NCC3CC3)c2)n1 (centres unmarked) | B (>20-50% degradation)
O=C1CCC(N2C(=O)c3ccc(N4CCN(CCOCCNCc5ccc(-n6cc(NC(=O)c7coc(-c8ccnc(NCC9CC9)c8)n7)c(C(F)F)n6)cc5)CC4)cc3C2=O)C(=O)N1 (centres unmarked) | A (>50% degradation)

###

# method-notes: Pharmacokinetics in Sprague Dawley rats (plasma and brain concentrations, PK parameters)
# Assay type: in vivo
# test-settings: Sprague Dawley, rat, plasma, iv, 3 mg/kg, Sprague Dawley rat, iv 3 mg/kg, Rat 3; read-out: C0 Rat 3

compound | C0 / ng/mL
O=C1CCC(N2C(=O)c3cccc(NCCOCCOCCNCc4ccc(-n5cc(NC(=O)c6coc(-c7ccnc(NCC8CC8)c7)n6)c(C(F)F)n5)cc4)c3C2=O)C(=O)N1 (stereo not shown) [I-210] | 855

###

Catalogue of AUC(0-t) values
# method-notes: Pharmacokinetics in CD-1 mice (plasma concentrations, PK parameters)
# Assay type: in vivo
# test-settings: CD-1, mouse, plasma, sc, 30 mg/kg, mouse (CD1) sc 30 mg/kg; Mean; read-out: AUClast

compound | AUC(0-t) [ng·h/mL]
NC(=O)c1nn(-c2ccc(C(=O)NCCCCCNCCNc3cccc4c3C(=O)N(C3CCC(=O)NC3=O)C4=O)cc2)cc1NC(=O)c1coc(-c2ccnc(NCC(F)(F)F)c2)n1 (centres unmarked) | 476
O=C1CCC(N2C(=O)c3cccc(NCCOCCOCCNCc4ccc(-n5cc(NC(=O)c6coc(-c7ccnc(NCC8CC8)c7)n6)c(C(F)F)n5)cc4)c3C2=O)C(=O)N1 (centres unmarked) | 1020
